# SYSTEM_NAME: Urotensin-2 receptor (Homo sapiens)
# Sequence (Q9UKP6 whole entry): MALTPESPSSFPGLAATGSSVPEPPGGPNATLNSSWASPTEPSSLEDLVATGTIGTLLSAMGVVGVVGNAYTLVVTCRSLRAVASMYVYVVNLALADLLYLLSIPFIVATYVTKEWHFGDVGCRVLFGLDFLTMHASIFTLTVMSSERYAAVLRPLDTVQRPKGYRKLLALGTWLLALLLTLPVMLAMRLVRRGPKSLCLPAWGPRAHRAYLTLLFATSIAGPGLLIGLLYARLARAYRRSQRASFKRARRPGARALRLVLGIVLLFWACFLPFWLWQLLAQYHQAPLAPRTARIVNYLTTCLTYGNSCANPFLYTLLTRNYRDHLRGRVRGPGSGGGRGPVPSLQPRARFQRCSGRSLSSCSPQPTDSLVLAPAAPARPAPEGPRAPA
# EXPERIMENT: Agonist activity against human urotensin 2 receptor expressed in […] cells assessed as beta-galactosidase activity after 5 days by R-SAT assay
READOUT_KIND: EC50 (nM)

> print(dat)
                                    compound  readout.kind  reported.value
 1  C=CCN(CC=C)c1ccc2c(c1)CC(CCN(C)C)(c1ccc(Cl)cc1)OC2=O (stereo not drawn)          EC50             724
 2  C=CCN(C)CCC1(c2ccc(Cl)cc2)Cc2ccccc2C(=O)O1 (stereo not drawn)          EC50            4170
 3  Cc1cc2c(cc1C)CC(CCN(C)C)(c1ccc(Cl)cc1)OC2 (stereo not drawn)          EC50             692
 4  Cc1cc2c(cc1C)C(=O)OC(CCN(C)C)(c1ccc3ccccc3c1)C2 (stereo not drawn)          EC50             148
 5  Cc1cc2c(cc1C)C(=O)OC(CCN(C)C)(c1ccc(Cl)c(Cl)c1)C2 (stereo not drawn)          EC50            51.3
 6  CN(C)CCC1(c2ccc(Cl)c(Cl)c2)Cc2ccccc2C(=O)O1 (stereo not drawn)          EC50             676
 7  CN(C)CCC1(c2cccc(Br)c2)Cc2ccccc2C(=O)O1 (stereo not drawn)          EC50            2950
 8  CN(C)CCC1(c2ccc(Br)cc2)Cc2ccccc2C(=O)O1 (stereo not drawn)          EC50             933
 9  CN(C)CCC1(c2ccc(Cl)cc2)Cc2ccc3ccccc3c2C(=O)O1 (stereo not drawn)          EC50            1150
10  C[N+](C)(C)CCC1(c2ccc(Cl)cc2)Cc2ccccc2C(=O)O1 (stereo not drawn)          EC50            3800
11  C=CCN(CC=C)c1cccc(C2(CCN(C)C)Cc3ccccc3C(=O)O2)c1 (stereo not drawn)          EC50            2400
12  COc1ccc2c(c1)CC(CCN(C)C)(c1ccc(Cl)cc1)OC2=O (stereo not drawn)          EC50             955
13  COc1cccc2c1CC(CCN(C)C)(c1ccc(Cl)cc1)N(C)C2=O (stereo not drawn)          EC50            1170
14  CN(C)CCC1(c2cccc(-c3ccccc3)c2)Cc2ccccc2C(=O)O1 (stereo not drawn)          EC50            1410
15  COc1ccc2c(c1C)CC(CCN(C)C)(c1ccc(Cl)cc1)OC2=O (stereo not drawn)          EC50            1740
16  CN(C)CCC1(c2ccc(Oc3ccccc3)cc2)Cc2ccccc2C(=O)O1 (stereo not drawn)          EC50            1150
17  CC(C)N1C(=O)c2ccccc2CC1(CCN(C)C)c1ccc(Cl)cc1 (stereo not drawn)          EC50            2240
18  CN(C)CCC1(c2ccc(Cl)cc2)Cc2ccccc2CO1 (stereo not drawn)          EC50             501
19  CN(C)CCC1(c2ccc(Cl)cc2)Cc2ccccc2C(=O)N1C (stereo not drawn)          EC50            2290
20  COc1cc(OC)cc(C2(CCN(C)C)Cc3cc(C)c(C)cc3C(=O)O2)c1 (stereo not drawn)          EC50            5250
21  Cc1cc2c(cc1C)CC(CCN(C)C)(c1ccc3ccccc3c1)OC2 (stereo not drawn)          EC50             263
22  CNCCC1(c2ccc(Cl)cc2)Cc2ccccc2C(=O)O1 (stereo not drawn)          EC50            1950
23  COc1cccc(C2(CCN(C)C)Cc3cc(C)c(C)cc3C(=O)O2)c1 (stereo not drawn)          EC50            2880
